List of IC50 tested on Cyclin-dependent kinase 1 (Homo sapiens).
Sequence (P06493 whole entry): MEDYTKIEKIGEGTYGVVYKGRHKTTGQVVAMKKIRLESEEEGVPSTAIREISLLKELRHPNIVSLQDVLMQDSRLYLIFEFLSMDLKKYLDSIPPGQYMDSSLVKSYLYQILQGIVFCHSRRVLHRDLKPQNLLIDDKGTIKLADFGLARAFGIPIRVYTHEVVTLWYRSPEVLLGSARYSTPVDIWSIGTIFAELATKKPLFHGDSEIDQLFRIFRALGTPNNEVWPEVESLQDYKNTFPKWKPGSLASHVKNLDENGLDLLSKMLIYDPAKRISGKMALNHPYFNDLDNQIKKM
Answers are plain numbers, in µM.

# map each molecule to its IC50
1. COc1cc(OC)nc(NC(=O)NS(=O)(=O)c2cc(NC=O)ccc2C(=O)N(C)C)n1 [FORAMSULFURON]
2. OCCN(CCO)Cc1cc(Cl)c2cccnc2c1O
3. CCN(CCO)CCCNc1ccnc2cc(Cl)ccc12
4. Cc1cc2[nH]c(=S)n([C@@H]3O[C@H](CO)[C@@H](O)[C@H]3O)c2cc1C
5. COC(=O)c1cc(NC(C)=O)ccc1S(=O)(=O)c1ccc(NC(C)=O)cc1C(=O)OC
6. OCCNC(=S)Nc1ccc(C(F)(F)F)cc1
7. O=c1c(O)c(-c2ccc(O)c(O)c2)oc2cc(O)cc(O)c12 [QUERCETIN]

Response:
[3.6, 3.23, 0.83, 2.1, 0.91, 1.4, 0.45]

These data points were gathered from ChEMBL document CHEMBL1240477.
